- System Under Test: NanoLuc (Oplophorus gracilirostris, UniProt Q9GV45, A31E/A60N/A81I/F95D/I117V/K70R/L54V/L99Q/M102K/N193R/P142E/Q151K/Q38R/Q45L/V71I/Y165I)
- Sequence (Q9GV45 28-196 with tags or gaps with the stated changes limits assumed): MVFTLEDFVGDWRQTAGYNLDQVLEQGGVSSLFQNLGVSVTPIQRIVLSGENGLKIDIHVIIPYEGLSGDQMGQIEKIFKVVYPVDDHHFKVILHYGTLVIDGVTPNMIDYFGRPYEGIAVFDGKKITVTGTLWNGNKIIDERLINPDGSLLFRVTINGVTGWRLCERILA
- Format: biochemical
- Condition Notes: relative value, Furimazine set to 1; NanoLuc; read three minutes after substrate addition
- Procedure: Luminescence Assay Procedure: Each compound to be screened was dissolved in DMSO (5 mM) and then further diluted to 100 μM in NANO-GLO® Luciferase Assay Buffer. Km values were determined by first serially diluting substrates two-fold into NANO-GLO® Luciferase Assay Buffer. […] Autoluminescence was measured by combining the 100 uM dilution of substrate with TBS+0.01% BSA. Luminescence and autoluminescence values were measured in a GloMax®-Multi+ luminometer three minutes after substrate addition. […]
Can you tell me RLU (at 100 μM) for the items I'm about to list?

Some solved entries appear below for comparison.
Input Smiles	Measured
O=c1c(Cc2ccc(OCCCCCCS(=O)(=O)[O-])c(F)c2)nc2c(Cc3ccccc3)[nH]c(-c3ccc(O)cc3)cn1-2.[Na+]	0.04
O=C(CCOCCOCCNC(=O)c1ccc(C(=O)[O-])c(-c2c3ccc(O)cc3[o+]c3cc(O)ccc23)c1)NCCCCCCCCOc1ccc(Cc2cc3c(Cc4ccccc4)[nH]c(-c4ccc(O)cc4)cn-3c2=O)cc1F	0.04
O=C(NCCCCCCCCOc1ccc(Cc2nc3c(Cc4ccccc4)[nH]c(-c4ccc(O)cc4)cn-3c2=O)cc1F)c1ccc(C(=O)[O-])c(-c2c3ccc(O)cc3[o+]c3cc(O)ccc23)c1	0.036
NCCCCCCOc1ccc(Cc2nc3c(Cc4ccccc4)[nH]c(-c4ccc(O)cc4)cn-3c2=O)cc1F	0.004
O=c1ccc2cc(Cc3nc4c(Cc5ccccc5)[nH]c(-c5ccc(O)cc5)cn-4c3=O)ccc2o1	0.009
CN(C)c1ccc2c(-c3cc(C(=O)NCCCCCCOc4ccc(Cc5nc6c(Cc7ccccc7)[nH]c(-c7ccc(O)cc7)cn-6c5=O)cc4F)ccc3C(=O)[O-])c3ccc(N(C)C)cc3[o+]c2c1	0.00000029
NCCOCCOCCC(=O)NCCCCCCCCOc1ccc(Cc2cc3c(Cc4ccccc4)[nH]c(-c4ccc(O)cc4)cn-3c2=O)cc1F	0.02
CC(=O)Oc1ccc2c(c1)Oc1cc(OC(C)=O)ccc1C21OC(=O)c2ccc(C(=O)NCCCCCCCCOc3ccc(Cc4nc5c(Cc6ccccc6)[nH]c(-c6ccc(O)cc6)cn-5c4=O)cc3F)cc21	0.00005

Provide reported RLU (at 100 μM) for each item, in the same order as listed.
1. CN(C)c1ccc2c(-c3cc(C(=O)NCCOCCOCCC(=O)NCCCCCCCCOc4ccc(Cc5cc6c(Cc7ccccc7)[nH]c(-c7ccc(O)cc7)cn-6c5=O)cc4F)ccc3C(=O)[O-])c3ccc(N(C)C)cc3[o+]c2c1
2. O=C(NCCCCCCOc1ccc(Cc2nc3c(Cc4ccccc4)[nH]c(-c4ccc(O)cc4)cn-3c2=O)cc1F)c1ccc(C(=O)[O-])c(-c2c3ccc(O)cc3[o+]c3cc(O)ccc23)c1
3. CN(C)c1ccc2c(-c3cc(C(=O)NCCCCCCCCOc4ccc(Cc5nc6c(Cc7ccccc7)[nH]c(-c7ccc(O)cc7)cn-6c5=O)cc4F)ccc3C(=O)[O-])c3ccc(N(C)C)cc3[o+]c2c1

Completion:
[0.0000024, 0.05, 0.000061]

###

- System Under Test: NanoLuc (Oplophorus gracilirostris, UniProt Q9GV45, A31E/A60N/A81I/F95D/I117V/K70R/L54V/L99Q/M102K/N193R/P142E/Q151K/Q38R/Q45L/V71I/Y165I)
- Format: biochemical
- Condition Notes: relative value, Furimazine set to 1; NanoLuc; read three minutes after substrate addition
Can you tell me RLU (at 100 μM) for the items I'm about to list?
One number for each entry.

Compound	Measured Property	Measured
O=c1c(Cc2ccco2)nc2c(Cc3ccccc3)[nH]c(-c3ccccc3)cn1-2 [Furimazine, reference compound]	RLU (at 100 μM)	1
COc1cc2c(c(Cl)c1OC(C)=O)Oc1c(cc(OC)c(OC(C)=O)c1Cl)C21OC(=O)c2ccc(C(=O)NCCCCCCCCOc3ccc(Cc4nc5c(Cc6ccccc6)[nH]c(-c6ccc(O)cc6)cn-5c4=O)cc3F)cc21	RLU (at 100 μM)	0.00005
O=c1c(Cc2ccco2)nc2c(Cc3ccccc3)[nH]c(-c3ccc(O)cc3)cn1-2 [Furimazine-h, reference compound]	RLU (at 100 μM)	1
O=C(CCc1ccc2n1[B-](F)(F)[N+]1=C(c3ccc[nH]3)C=CC1=C2)NCCCCCCOc1ccc(Cc2nc3c(Cc4ccccc4)[nH]c(-c4ccc(O)cc4)cn-3c2=O)cc1F	RLU (at 100 μM)	0.00094

# ---- query compound ----
Prompt: // fetch RLU (at 100 μM) given entry [N-]=[N+]=NCCCCCCOc1ccc(Cc2nc3c(Cc4ccccc4)[nH]c(-c4ccc(O)cc4)cn-3c2=O)cc1F
Completion: 0.005
